Multiple publications report Ki for Human σ1 receptor (Homo sapiens); what follows is a combined list.

molecule: COc1ncccc1-c1cc2nccc(C3CCCN(Cc4ccc(Cl)cc4)C3)n2n1 (centres unmarked)
Ki: > 1000 nM

molecule: CCCC(c1nc2ncc(F)cc2c(=O)n1CC1CC1)N1CCN[C@@H](C)CC1 (single isomer, unassigned)
Ki: > 1000 nM

molecule: Cc1nn2c(C3CCCN(Cc4ccc(Cl)cc4)C3)ccnc2c1-c1ccnc(N)n1 (centres unmarked)
Ki: > 1000 nM

molecule: CCC[C@H](c1nc2ccc(F)c(F)c2c(=O)n1CC)N1CCN[C@H](C)CC1
Ki: > 1000 nM

molecule: CC(C)N1CC(C2CCN(CCc3ccccc3)CC2)OC2(CC2)C1=O (centres unmarked)
Ki: < 500 nM

molecule: CCCC(c1nc2ncccc2c(=O)n1CC)N1CCCN(CC)CC1 (centres unmarked)
Ki: > 1000 nM

molecule: CCN1CC(C2CCN(CCC(C)C)CC2)OC2(CC2)C1=O (centres unmarked)
Ki: < 500 nM

molecule: CN[C@@H]1CCN(c2cc3nccc([C@@H]4CCCN(Cc5ccccc5)C4)n3n2)C1
Ki: > 1000 nM

* * *

pKi: −log10 of the molar value.
Multiple publications report pKi for Human σ1 receptor (Homo sapiens, UniProt Q99720); what follows is a combined list.

compound: COc1ccncc1-c1cc2nccc(C3CCCN(Cc4ccccc4)C3)n2n1 (stereo not drawn)
pKi: < 6.00
//
compound: Cc1nn2c(C3CCCN(Cc4ccc(Cl)cc4)C3)ccnc2c1CN1C[C@@H](C)O[C@@H](C)C1 (stereo partly drawn)
pKi: 6.00 to 6.30
//
compound: CCCC(c1nc2ccc(F)c(F)c2c(=O)n1CC)N1CCCN(CC)CC1 (stereo not drawn)
pKi: > 6.30
//
compound: CC(=O)N1CCC(CNCc2c(Cl)nn3c(C4CCCN(CCC(C)C)C4)ccnc23)CC1 (stereo not drawn)
pKi: > 6.30
//
compound: CCN1CC2(CCCN(CCC(C)C)CC2)OC(C)(C)C1=O (stereo not drawn)
pKi: > 6.30
//
compound: Cc1nn2c(C3CCCN(CC4CCOCC4)C3)ccnc2c1CNCC1CCOCC1 (stereo not drawn)
pKi: < 6.00
//
compound: Cc1nn2c([C@H]3CCCN(Cc4ccc(F)cc4)C3)ccnc2c1CNCC1CCOCC1
pKi: > 6.30
//
compound: CC(=O)N1CCC(CNCc2c(Cl)nn3c([C@H]4CCCN(Cc5ccccc5)C4)ccnc23)CC1
pKi: > 6.30
//
compound: Cc1nn2c(C3CCCN(Cc4ccccc4)C3)ccnc2c1-c1ccc(N(C)C)cc1 (stereo not drawn)
pKi: < 6.00
//
compound: CCC[C@@H](c1nc2cc(F)c(Br)cc2c(=O)n1CC)N1CCCNCC1
pKi: < 6.00
//
compound: c1ccc(CN2CCCC(c3ccnc4cc(-c5ccncc5)nn34)C2)cc1 (stereo not drawn)
pKi: < 6.00
//
compound: CCN1CC(C)(C)O[C@]2(CC[C@@H](N(C)CCC(C)C)CC2)C1
pKi: > 7.00
//
compound: Cc1nn2c(C3CCCN(Cc4ccc(C#N)cc4)C3)ccnc2c1CNCC1CCOCC1 (stereo not drawn)
pKi: > 6.30
//
compound: COc1ncccc1-c1cc2nccc(C3CCCN(Cc4ccccc4)C3)n2n1 (stereo not drawn)
pKi: 6.00 to 6.30
//
compound: CCC[C@@H](c1nc2cc(F)c(Br)cc2c(=O)n1CC)N1CCNC[C@@H](C)C1
pKi: < 6.00
//
compound: CCN1C[C@@]2(CCCN(Cc3ccc(C#N)cc3)CC2)O[C@H](C)C1=O
pKi: ≤ 6.30
//
compound: CCC[C@H](c1nc2ccc(OC)cc2c(=O)n1CC)N1CCCN(C)CC1
pKi: < 6.00
//
compound: Clc1ccc(CN2CCCC(c3ccnc4cc(Br)nn34)C2)cc1 (stereo not drawn)
pKi: 6.00 to 6.30
